System name: Phosphatidylinositol 4,5-bisphosphate 3-kinase catalytic subunit gamma isoform (Homo sapiens, UniProt P48736)
Measurement description: Inhibition of PI3Kgamma (unknown origin) assessed as decrease in fluorescence intensity using phosphorylated substrate
Sequence (P48736 whole entry, canonical isoform): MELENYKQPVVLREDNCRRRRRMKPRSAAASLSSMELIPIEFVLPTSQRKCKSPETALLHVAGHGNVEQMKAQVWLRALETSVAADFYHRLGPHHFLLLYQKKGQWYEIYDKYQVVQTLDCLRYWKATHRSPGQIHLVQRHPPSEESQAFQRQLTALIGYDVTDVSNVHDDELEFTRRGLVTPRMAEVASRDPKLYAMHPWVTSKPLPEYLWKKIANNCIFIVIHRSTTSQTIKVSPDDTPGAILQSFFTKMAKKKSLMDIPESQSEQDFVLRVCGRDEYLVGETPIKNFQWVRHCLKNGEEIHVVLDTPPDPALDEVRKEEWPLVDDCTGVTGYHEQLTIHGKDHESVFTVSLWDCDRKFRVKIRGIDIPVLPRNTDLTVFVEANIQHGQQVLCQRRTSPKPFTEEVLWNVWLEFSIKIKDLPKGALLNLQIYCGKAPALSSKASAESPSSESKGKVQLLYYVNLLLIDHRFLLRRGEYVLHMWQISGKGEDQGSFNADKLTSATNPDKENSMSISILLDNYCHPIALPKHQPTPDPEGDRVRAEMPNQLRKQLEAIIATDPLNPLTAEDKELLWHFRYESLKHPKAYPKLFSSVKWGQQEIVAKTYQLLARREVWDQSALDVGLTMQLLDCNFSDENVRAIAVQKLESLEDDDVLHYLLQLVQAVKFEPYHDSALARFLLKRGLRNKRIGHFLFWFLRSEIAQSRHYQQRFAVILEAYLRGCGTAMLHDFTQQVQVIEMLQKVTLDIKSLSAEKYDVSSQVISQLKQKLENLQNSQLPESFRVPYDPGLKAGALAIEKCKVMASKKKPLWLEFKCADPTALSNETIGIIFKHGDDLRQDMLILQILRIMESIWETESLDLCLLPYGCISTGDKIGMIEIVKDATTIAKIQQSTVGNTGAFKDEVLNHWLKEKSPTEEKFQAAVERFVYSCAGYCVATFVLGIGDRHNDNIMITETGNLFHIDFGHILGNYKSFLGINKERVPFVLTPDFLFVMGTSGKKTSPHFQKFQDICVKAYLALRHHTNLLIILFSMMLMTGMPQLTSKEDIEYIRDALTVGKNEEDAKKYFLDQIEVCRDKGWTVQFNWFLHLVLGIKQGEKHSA
A collection of compounds and their measured pIC50
In simple prose, pIC50 is minus the logarithm base ten of a concentration in moles per litre.

1) CCOc1ccc(Nc2ccc3c(O)cc(S(=O)(=O)O)cc3c2)cc1: 6.00
2) O=C(NC(Cc1ccc(OC(=O)OCc2ccccc2)cc1)C(=O)O)OCc1ccccc1 (stereo not given): 6.49

Name the recorded pIC50 of the compound listed here: COc1cc(C[C@@H](CC(=O)c2ccc3c(c2)OCO3)C(=O)O)cc(OC)c1OC 6.24

Using known records, supply pIC50 for COc1cc2cc3c4cc(OC)c(OC)cc4cc[n+]3c(CCC(=O)O)c2cc1OC 5.13

Complete the entry with pIC50 for O=C1NC(=S)S/C1=C\c1ccc2c(c1)N(CCc1ccc(Cl)cc1Cl)C(=O)CO2 7.74

----------
System name: Phosphatidylinositol 4,5-bisphosphate 3-kinase catalytic subunit gamma isoform (Homo sapiens)
Measurement description: Inhibition of PI3Kgamma (unknown origin) assessed as decrease in fluorescence intensity using phosphorylated substrate at 10 uM
Sequence (P48736 whole entry, looked up, canonical isoform): as the sequence (P48736 whole entry, canonical isoform) above
Residues, ends and D or L forms follow the SMILES beside them. *: point of attachment. Cbz = O=C(OCc1ccccc1)*
inhibition of 60% or higher: Criterion met. Under 60%: Criterion not met.

The following compounds have reported results that may help.
1. O=C(NC(Cc1ccccc1)C(=O)NC(Cc1ccc(O)cc1)C(=O)O)OCc1ccccc1 (stereo not drawn) (Cbz-Phe-Tyr-OH; configuration not given here): Criterion not met
2. O=C(O)C(Nc1ccc(Oc2ccc(NC(C(=O)O)c3ccccc3)cc2)cc1)c1ccccc1 (stereo unspecified): Criterion not met
3. CCCCOc1ccc(C(CC(=O)O)CC(=O)O)cc1OC: Criterion met
4. O=C(O)c1ccccc1SC(Sc1ccccc1C(=O)O)c1cccc(Cl)c1: Criterion met
5. COc1ccccc1/N=N/c1c(O)ccc2cc(S(=O)(=O)O)ccc12: Criterion not met
6. COc1ccccc1/N=N/c1c(O)c(S(=O)(=O)O)cc2cc(S(=O)(=O)O)ccc12: Criterion met
7. O=S(=O)(O)c1cc(O)c2ccc(Nc3ccc4c(O)cc(S(=O)(=O)O)cc4c3)cc2c1: Criterion not met
8. COc1ccc(C(CC(=O)c2ccc3c(c2)OCO3)C(=O)O)cc1OC (stereo unspecified): Criterion met
9. CCOc1nc(OCC)c2[nH]c(C(=O)O)c(Br)c2n1: Criterion not met
10. Cc1ccccc1/N=N\c1ccc(/N=N/c2c(O)ccc3cc(S(=O)(=O)O)ccc23)c(C)c1: Criterion met

Could you verify whether the entry COc1cc(C(CC(=O)O)CC(=O)O)ccc1OCc1ccccc1 shows inhibition of no less than 60%? Criterion not met

Decide: is the reported value of inhibition for CSCCC(NCc1c(O)ccc2c(-c3ccccc3)cc(=O)oc12)C(=O)O (stereo unspecified) equal to or greater than 60%? Criterion not met

----------
System name: Phosphatidylinositol 4,5-bisphosphate 3-kinase catalytic subunit gamma isoform (Homo sapiens)
Measurement description: Inhibition of PI3Kgamma (unknown origin) assessed as decrease in fluorescence intensity using phosphorylated substrate at 10 uM
Non-standard residues stand in square brackets, D forms with d. Residues, ends and D or L forms follow the SMILES beside them. *: point of attachment. Cbz = O=C(OCc1ccccc1)*; Nva = CCC[CH](N)C(=O)O
Quick reference for inhibition among some molecules
Field: numeric (%). Do not append units.

Examples with their reported inhibition follow.
1. O=S(=O)(O)c1ccc(OCCCCCCCCCCOc2ccc(S(=O)(=O)O)cc2)cc1: 11
2. COc1cc2cc(C(=O)O)[nH]c2cc1OCc1ccccc1: 100
3. COc1cc(/N=N\c2ccc(S(=O)(=O)O)cc2)ccc1/N=N/c1c(O)ccc2cc(S(=O)(=O)O)ccc12: 62

Please supply the value of reported inhibition for the item O=C(NC(Cc1ccc(O)cc1)C(=O)O)C(=O)c1c[nH]c2ccc([N+](=O)[O-])cc12 (centres undefined) 34

Give recorded inhibition. CCCC(NC(=O)OCc1ccccc1)C(=O)NC(Cc1ccc(O)cc1)C(=O)O (centres undefined) (Cbz-[Nva]-Tyr-OH; configuration not given here) 10

Identify the reported inhibition for the following entry. O=C(O)C[S+]([O-])c1ccc2c3c(cccc13)C(=O)c1ccccc1-2 (centres undefined) 67

For O=C(NC(Cc1ccc(OC(=O)OCc2ccccc2)cc1)C(=O)O)OCc1ccccc1 (centres undefined) , write its inhibition. 79

Give the value of inhibition reported for the following: CCCCCCCCCCCCCCCC1=NN(c2ccc(S(=O)(=O)O)cc2)C(=O)C1/N=N/c1ccccc1 (centres undefined) 92

Name the recorded inhibition of the molecule listed here: O=C(COc1ccc(Cl)cc1C(=O)O)Nc1cccc(NC(=O)Nc2cccc(S(=O)(=O)F)c2)c1 51
